Tested on: rats
Assay: Hotplate assay
Format: in vivo, rat
Settings: hotplate, IP at 10 mg/kg
endpoint.label: Tmax (I.P.) of % MPE
Kindly provide the number alone.

INPUT: Given the substance Arg-Arg-Pro-Tyr-tLeu-Leu [ABS237] , write its reported Tmax (I.P.) of % MPE.
OUTPUT: 30

INPUT: Fill in Tmax (I.P.) of % MPE for record Boc-Arg-Pro-Tyr-t-Leu-Leu [ABS700]
OUTPUT: 90

INPUT: Fill in reported Tmax (I.P.) of % MPE for this entry: Orn-Arg-Pro-Tyr-t-Leu-Leu [ABS209]
OUTPUT: 60

INPUT: In one line, give reported Tmax (I.P.) of % MPE of the entry Arg-Arg-Pro-Tyr-t-Leu-Leu [ABS213] .
OUTPUT: 30

---

Assay: Pharmacokinetics of ABS201 in blood/plasma (LC/MS/MS)
Settings: SD, rat, in vivo, iv, 100 mg/kg
Non-standard residues stand in square brackets, D forms with d. Residues, ends and D or L forms follow the SMILES beside them. *: point of attachment. Tle = CC(C)(C)[C@H](N)C(=O)O; X1 = C[C@@H](CCCCCN)C(=O)*
endpoint.label: clearance (mL/min/kg)
Field: numeric (mL/min/kg). Do not append units.

INPUT: Give me measured clearance, please, for this molecule: CC(C)C[C@H](NC(=O)[C@@H](NC(=O)[C@H](Cc1ccc(O)cc1)NC(=O)[C@@H]1CCCN1C(=O)[C@H](CCCNC(=N)N)NC(=O)[C@@H](C)CCCCCN)C(C)(C)C)C(=O)O [ABS201.2HCl] (X1-RPY[Tle]L-OH)
OUTPUT: 380

---

Assay: Pharmacokinetics of ABS201 in blood/plasma (LC/MS/MS)
Settings: rat, in vivo, iv, 5 mg/kg
Non-standard residues stand in square brackets, D forms with d. Residues, ends and D or L forms follow the SMILES beside them. *: point of attachment. Tle = CC(C)(C)[C@H](N)C(=O)O; X1 = C[C@@H](CCCCCN)C(=O)*
endpoint.label: Vd (L/kg)
Give the value in L/kg but do not write L/kg after it.

INPUT: Please look at this molecule and report its Vd: CC(C)C[C@H](NC(=O)[C@@H](NC(=O)[C@H](Cc1ccc(O)cc1)NC(=O)[C@@H]1CCCN1C(=O)[C@H](CCCNC(=N)N)NC(=O)[C@@H](C)CCCCCN)C(C)(C)C)C(=O)O [ABS201, hLys-Arg-Pro-Tyr-t-Leu-Leu] (X1-RPY[Tle]L-OH)
OUTPUT: 0.87

---

Assay: in vivo
Details: rat, po
Non-standard residues stand in square brackets, D forms with d. Residues, ends and D or L forms follow the SMILES beside them. *: point of attachment. Tle = CC(C)(C)[C@H](N)C(=O)O; X1 = C[C@@H](CCCCCN)C(=O)*
endpoint.label: MTD at 48 hr

INPUT: Answer with reported MTD at 48 hr of CC(C)C[C@H](NC(=O)[C@@H](NC(=O)[C@H](Cc1ccc(O)cc1)NC(=O)[C@@H]1CCCN1C(=O)[C@H](CCCNC(=N)N)NC(=O)[C@@H](C)CCCCCN)C(C)(C)C)C(=O)O [ABS201, hLys-Arg-Pro-Tyr-t-Leu-Leu] (X1-RPY[Tle]L-OH)
OUTPUT: ≥ 500 mg/kg

---

Assay: Brain distribution of ABS201 (LC/MS/MS)
Settings: SD, rat, brain, iv, 100 mg/kg
Non-standard residues stand in square brackets, D forms with d. Residues, ends and D or L forms follow the SMILES beside them. *: point of attachment. Tle = CC(C)(C)[C@H](N)C(=O)O; X1 = C[C@@H](CCCCCN)C(=O)*
endpoint.label: Cmax (ng/g)
Reply numerically in ng/g, unit not repeated.

INPUT: Provide one value: measured Cmax of CC(C)C[C@H](NC(=O)[C@@H](NC(=O)[C@H](Cc1ccc(O)cc1)NC(=O)[C@@H]1CCCN1C(=O)[C@H](CCCNC(=N)N)NC(=O)[C@@H](C)CCCCCN)C(C)(C)C)C(=O)O [ABS201.2HCl] (X1-RPY[Tle]L-OH)
OUTPUT: 32.9
